Target Desc: Epidermal growth factor receptor (Homo sapiens, UniProt P00533)
Sequence (P00533 whole entry): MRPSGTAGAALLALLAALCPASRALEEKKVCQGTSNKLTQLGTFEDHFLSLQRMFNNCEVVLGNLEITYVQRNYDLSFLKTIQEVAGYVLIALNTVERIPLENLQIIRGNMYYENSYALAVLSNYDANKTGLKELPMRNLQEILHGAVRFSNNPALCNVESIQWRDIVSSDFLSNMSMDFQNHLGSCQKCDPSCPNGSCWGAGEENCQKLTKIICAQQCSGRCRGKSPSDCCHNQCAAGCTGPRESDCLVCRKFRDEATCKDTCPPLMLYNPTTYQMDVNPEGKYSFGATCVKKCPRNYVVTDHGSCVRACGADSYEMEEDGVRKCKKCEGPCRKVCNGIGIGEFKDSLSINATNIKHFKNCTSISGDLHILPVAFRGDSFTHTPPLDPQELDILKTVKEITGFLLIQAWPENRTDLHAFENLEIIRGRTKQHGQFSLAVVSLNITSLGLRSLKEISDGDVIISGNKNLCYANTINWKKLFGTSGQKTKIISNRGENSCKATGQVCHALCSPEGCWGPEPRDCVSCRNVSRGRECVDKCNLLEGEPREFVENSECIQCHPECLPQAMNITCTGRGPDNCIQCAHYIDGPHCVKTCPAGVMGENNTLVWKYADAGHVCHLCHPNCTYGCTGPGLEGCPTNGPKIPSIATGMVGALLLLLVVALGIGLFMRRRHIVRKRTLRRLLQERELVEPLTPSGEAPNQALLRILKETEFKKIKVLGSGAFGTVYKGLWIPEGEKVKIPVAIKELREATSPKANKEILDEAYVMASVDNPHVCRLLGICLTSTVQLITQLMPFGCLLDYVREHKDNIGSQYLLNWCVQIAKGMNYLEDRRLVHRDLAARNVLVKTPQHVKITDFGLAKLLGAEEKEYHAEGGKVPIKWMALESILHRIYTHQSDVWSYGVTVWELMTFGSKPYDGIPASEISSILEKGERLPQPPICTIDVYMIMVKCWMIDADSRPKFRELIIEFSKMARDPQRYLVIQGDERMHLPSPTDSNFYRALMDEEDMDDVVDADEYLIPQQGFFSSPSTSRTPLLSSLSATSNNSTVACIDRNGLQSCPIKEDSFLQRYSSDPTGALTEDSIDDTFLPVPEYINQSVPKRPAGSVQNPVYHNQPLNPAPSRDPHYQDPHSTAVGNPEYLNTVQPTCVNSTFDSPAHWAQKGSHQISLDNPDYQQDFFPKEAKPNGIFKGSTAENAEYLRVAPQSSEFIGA
Method Description: Inhibition of wildtype EGFR (unknown origin) phosphorylation transfected in human NCI-H2073 cells preincubated for 2 hrs followed by EGF stimulation for 10 mins by ELISA
Type: cell-based
Each entry below carries its recorded IC50.
Only the number, expressed in nM, is required.

# Compound, IC50 (nM)
rows = [
    ("C=CC(=O)N[C@H]1C=C(C)c2c(-c3cnc4ccccc4c3)c3c(N)ncnc3n2C1 [CLN-081]", 190),
]

Kindly review the next compound as well.
// IC50 lookup, key: C=CC(=O)Nc1cc(Nc2ncc(C(=O)OC(C)C)c(-c3cn(C)c4ccccc34)n2)c(OC)cc1N(C)CCN(C)C [MOBOCERTINIB]
30

* * *

Test system: MDR1
Method Description: Efflux ratio of apparent permeability across basolateral to apical side over apical to basolateral side in MDCKII-MDR1 cells at 1 uM incubated for 2 hrs by LC-MS/MS analysis
Assay type: ADME, cell-based, Canis lupus familiaris
Test Context: dog, MDCK-MDR1
Metric: efflux ratio at 2 h, 1 µM
Please state the value as a number alone, without comment.

// efflux ratio at 2 h, 1 µM lookup, key: `C=CC(=O)N1CC[C@H](n2cc(-c3ccncc3)c(-c3cccc(/C=C/c4ccc5c(c4)CN(C)C5=O)c3)n2)C1`
29

* * *

Method Description: Lipophilicity, logD of compound in octanol and aqueous buffer at pH 7.4 incubated for 2 hrs by shake-flask method based LC-MS/MS analysis
Format: physicochemical
Metric: logD at 2 h
Please state the value as a number alone, without comment.

# Molecular String, logD at 2 h
rows = [
    ("C=CC(=O)N1CC[C@H](n2cc(-c3ccncc3)c(-c3cccc(COc4ccc5c(c4)CN(C)C5=O)c3)n2)C1", 3),
]

Kindly review the next compound as well.
// logD at 2 h lookup, key: `C=CC(=O)N1CC(Oc2cc3c(-c4c[nH]nc4-c4cccc(OC)c4)ncnc3cc2OC)C1`
2

* * *

Method Description: Metabolic stability in human liver microsomes assessed as intrinsic clearance at 1 uM incubated for 30 mins in presence of NADPH by LC-MS/MS analysis
Assay type: ADME, Microsome
Test Context: read-out: CLH
Metric: microsomal CLint at 1 µM (µL/min/mg)
Only the number, expressed in µL/min/mg, is required.

// microsomal CLint at 1 µM lookup, key: `C=CC(=O)N1CC[C@@H](n2cc(-c3ncnc4cc(OC)c(OC)cc34)c(-c3cccc(OC)c3)n2)C1`
135

// microsomal CLint at 1 µM lookup, key: `C=CC(=O)N1CC(n2cc(-c3ccncc3)c(-c3cccc(NC(=O)c4cn(C5CC5)cn4)c3)n2)C1`
19

// microsomal CLint at 1 µM lookup, key: `C=CC(=O)N1CC[C@H](n2cc(-c3ncnc4cc(OC)c(OC)cc34)c(-c3cccc(OC)c3)n2)C1`
157

// microsomal CLint at 1 µM lookup, key: `C=CC(=O)N1CC[C@H](n2cc(-c3ccncc3)c(-c3cccc(NC(=O)c4ccc5c(c4)CN(C)C5=O)c3)n2)C1`
58

// microsomal CLint at 1 µM lookup, key: `C=CC(=O)N1CC[C@H](n2cc(-c3ccncc3)c(-c3cccc(NC(=O)c4cccc(OC)c4F)c3)n2)C1`
175

// microsomal CLint at 1 µM lookup, key: `CN1Cc2cc(COc3cccc(-c4n[nH]cc4-c4ccncc4)c3)ccc2C1=O`
77

* * *

Method Description: Metabolic stability in rat hepatocytes assessed as intrinsic clearance measured per 10^6 cells at 1 uM incubated for 120 mins by LC-MS/MS analysis
Assay type: ADME, cell-based, Hepatocyte
Test Context: read-out: CLH
Each entry below carries its recorded hepatocyte CLint at 1 µM.
Only the number, expressed in µL/min/1e6 cells, is required.

Example entries begin here.
# Molecular String, Unit Of Measurement, Test Value
measured = [
    ("C=CC(=O)N1C[C@@H](n2cc(-c3ccncc3)c(-c3cc(COc4ccc5c(c4)CN(C)C5=O)ccc3F)n2)C[C@H]1C", "µL/min/1e6 cells", 55),
    ("C=CC(=O)N1CC[C@H](n2cc(-c3ccncc3)c(-c3cccc(COc4ccc5c(c4)CN(C)C5=O)c3)n2)C1", "µL/min/1e6 cells", 128),
    ("C=CC(=O)N1CC[C@H](n2cc(-c3ccncc3)c(-c3cccc(NC(=O)c4cn(C5CC5)cn4)c3)n2)C1", "µL/min/1e6 cells", 38),
    ("C=CC(=O)N1CC[C@H](n2cc(-c3ccncc3)c(-c3cccc(/C=C/c4cc5n(n4)CCOC5)c3)n2)C1", "µL/min/1e6 cells", 62),
    ("C=CC(=O)N1CC[C@H](n2cc(-c3ccncc3)c(-c3cccc(/C=C/c4ncc(C5CC5)o4)c3)n2)C1", "µL/min/1e6 cells", 43),
    ("C=CC(=O)N1CC[C@H](n2cc(-c3ccncc3)c(-c3cccc(NC(=O)c4ncc(C5CC5)o4)c3)n2)C1", "µL/min/1e6 cells", 187),
    ("C=CC(=O)N1CC[C@H](n2cc(-c3ccncc3)c(-c3cccc(/C=C/c4ccc5c(c4)CN(C)C5=O)c3)n2)C1", "µL/min/1e6 cells", 28),
]

Kindly review the next compound as well.
// hepatocyte CLint at 1 µM lookup, key: `C=CC(=O)N1CC(n2cc(-c3ccncc3)c(-c3cccc(/C=C/c4ncc(C5CC5)o4)c3)n2)C1`
48

* * *

Method Description: Metabolic stability in human liver microsomes assessed as intrinsic clearance at 1 uM incubated for 30 mins in presence of NADPH by LC-MS/MS analysis
Assay type: ADME, Microsome
Test Context: read-out: CLH
Metric: microsomal CLint at 1 µM

Example entries begin here.
# Molecular String, microsomal CLint at 1 µM
rows = [
    ("C=CC(=O)N1CC[C@H](n2cc(-c3ccncc3)c(-c3cccc(NC(=O)c4ncc(C5CC5)o4)c3)n2)C1", "166 µL/min/mg"),
    ("C=CC(=O)Nc1ccc(OC)c(Nc2nccc(-c3c[nH]nc3-c3cccc(OC)c3)n2)c1", "46 µL/min/mg"),
    ("C=CC(=O)N1CC[C@H](n2cc(-c3ccncc3)c(-c3cccc(COc4ccc5c(c4)CN(C)C5=O)c3)n2)C1", "> 300 µL/min/mg"),
]

Kindly review the next compound as well.
// microsomal CLint at 1 µM lookup, key: `C=CC(=O)N1CC[C@H](n2cc(-c3ccncc3)c(-c3cc(OCc4ccc5c(c4)CN(C)C5=O)ccc3F)n2)C1`
> 300 µL/min/mg

* * *

Target Desc: Tyrosine-protein kinase BTK (Homo sapiens, UniProt Q06187)
Sequence (Q06187 whole entry): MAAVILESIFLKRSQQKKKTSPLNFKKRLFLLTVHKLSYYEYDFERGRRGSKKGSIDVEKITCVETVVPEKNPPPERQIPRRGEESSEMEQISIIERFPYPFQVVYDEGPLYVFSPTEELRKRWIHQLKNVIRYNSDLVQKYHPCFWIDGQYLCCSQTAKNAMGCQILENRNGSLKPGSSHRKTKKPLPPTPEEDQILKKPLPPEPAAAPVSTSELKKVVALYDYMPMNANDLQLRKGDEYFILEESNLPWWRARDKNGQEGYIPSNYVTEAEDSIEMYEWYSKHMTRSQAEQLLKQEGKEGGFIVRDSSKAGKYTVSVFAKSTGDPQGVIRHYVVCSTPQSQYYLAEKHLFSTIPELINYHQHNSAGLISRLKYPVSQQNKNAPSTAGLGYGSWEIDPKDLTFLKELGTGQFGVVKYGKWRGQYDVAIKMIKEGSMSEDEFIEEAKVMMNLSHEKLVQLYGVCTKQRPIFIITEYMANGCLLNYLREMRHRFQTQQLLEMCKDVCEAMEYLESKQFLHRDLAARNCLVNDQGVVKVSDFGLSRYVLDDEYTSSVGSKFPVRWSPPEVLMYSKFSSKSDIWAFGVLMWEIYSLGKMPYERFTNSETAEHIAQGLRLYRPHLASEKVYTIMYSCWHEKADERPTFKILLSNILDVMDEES
Metric: pIC50
# pIC50 is unitless: minus log10 of the molar concentration; print number only

// pIC50 lookup, key: `C=CC(=O)N1CC[C@H](n2cc(-c3ccncc3)c(-c3cccc(/C=C/c4ncc(C5CC5)o4)c3)n2)C1`
8.00

* * *

Target Desc: Receptor tyrosine-protein kinase erbB-4 (Homo sapiens)
Sequence (Q15303 whole entry): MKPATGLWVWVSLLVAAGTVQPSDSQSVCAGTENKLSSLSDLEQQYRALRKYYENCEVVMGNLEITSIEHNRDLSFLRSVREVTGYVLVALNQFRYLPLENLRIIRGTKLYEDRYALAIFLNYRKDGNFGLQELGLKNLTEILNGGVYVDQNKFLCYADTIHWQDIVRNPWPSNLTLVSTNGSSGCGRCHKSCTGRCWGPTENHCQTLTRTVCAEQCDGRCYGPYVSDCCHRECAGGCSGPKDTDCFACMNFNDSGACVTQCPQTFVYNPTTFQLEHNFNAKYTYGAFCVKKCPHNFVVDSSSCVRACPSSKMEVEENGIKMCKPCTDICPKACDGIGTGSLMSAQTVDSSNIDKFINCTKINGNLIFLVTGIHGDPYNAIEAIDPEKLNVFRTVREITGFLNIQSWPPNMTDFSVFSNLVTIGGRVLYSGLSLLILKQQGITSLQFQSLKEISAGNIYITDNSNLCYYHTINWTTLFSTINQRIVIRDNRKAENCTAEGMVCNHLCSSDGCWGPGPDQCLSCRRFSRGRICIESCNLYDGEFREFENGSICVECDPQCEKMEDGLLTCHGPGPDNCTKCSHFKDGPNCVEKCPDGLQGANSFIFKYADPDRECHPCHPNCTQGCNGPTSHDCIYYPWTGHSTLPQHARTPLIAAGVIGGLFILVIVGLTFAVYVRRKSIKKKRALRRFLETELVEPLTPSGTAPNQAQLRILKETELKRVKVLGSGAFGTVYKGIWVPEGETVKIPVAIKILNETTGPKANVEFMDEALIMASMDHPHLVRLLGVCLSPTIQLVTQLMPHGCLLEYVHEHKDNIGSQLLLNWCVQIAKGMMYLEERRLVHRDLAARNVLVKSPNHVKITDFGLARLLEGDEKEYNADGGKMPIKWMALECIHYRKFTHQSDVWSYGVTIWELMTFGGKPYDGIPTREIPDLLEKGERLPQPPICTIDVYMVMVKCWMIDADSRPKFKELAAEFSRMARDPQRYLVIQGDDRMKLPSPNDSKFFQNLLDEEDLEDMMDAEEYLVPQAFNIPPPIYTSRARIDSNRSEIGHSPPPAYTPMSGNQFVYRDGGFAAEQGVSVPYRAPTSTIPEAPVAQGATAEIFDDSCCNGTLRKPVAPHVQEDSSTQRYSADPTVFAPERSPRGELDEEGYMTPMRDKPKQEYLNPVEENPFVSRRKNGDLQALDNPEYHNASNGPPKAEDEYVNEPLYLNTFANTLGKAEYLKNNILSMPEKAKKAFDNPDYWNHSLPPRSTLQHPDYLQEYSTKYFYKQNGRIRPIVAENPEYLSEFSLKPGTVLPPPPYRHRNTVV
Metric: IC50 (nM)
Only the number, expressed in nM, is required.

// IC50 lookup, key: `C=CC(=O)N1CC[C@H](n2cc(-c3ccncc3)c(-c3cccc(/C=C/c4ncc(C5CC5)o4)c3)n2)C1`
9

* * *

Method Description: Lipophilicity, logD of compound in octanol and aqueous buffer at pH 7.4 incubated for 2 hrs by shake-flask method based LC-MS/MS analysis
Type: physicochemical
Metric: logD at 2 h
Please state the value as a number alone, without comment.

Example entries begin here.
# Molecular String, Metric, Test Value
records = [
    ("C=CC(=O)N1CC[C@H](n2cc(-c3ccncn3)c(-c3cccc(/C=C/c4ncc(C5CC5)o4)c3)n2)C1", "logD at 2 h", 3.7),
    ("C=CC(=O)N1CC[C@@H](n2cc(-c3ncnc4cc(OC)c(OC)cc34)c(-c3cccc(OC)c3)n2)C1", "logD at 2 h", 2.4),
]

Kindly review the next molecule as well.
// logD at 2 h lookup, key: `C=CC(=O)N1CC[C@H](n2cc(-c3ccncc3)c(-c3cccc(/C=C/c4ncc(C5CC5)o4)c3)n2)C1`
4.8

* * *

Target Desc: Epidermal growth factor receptor (Homo sapiens, UniProt P00533, D770-N771INSSVD)
Sequence (P00533 whole entry, looked up, stated change not applied): as the sequence (P00533 whole entry) above
Method Description: Inhibition of EGFR D770_N771insSVD mutant (unknown origin) phosphorylation transfected in human NCI-H2073 cells incubated for 2 hrs by ELISA
Type: cell-based
Each entry below carries its recorded pIC50.
# pIC50 is unitless: minus log10 of the molar concentration; print number only

# Molecular String, pIC50
rows = [
    ("C=CC(=O)N[C@H]1C=C(C)c2c(-c3cnc4ccccc4c3)c3c(N)ncnc3n2C1", 7.24),
]

// pIC50 lookup, key: `C=CC(=O)Nc1cc(Nc2ncc(C(=O)OC(C)C)c(-c3cn(C)c4ccccc34)n2)c(OC)cc1N(C)CCN(C)C`
7.66

* * *

Method Description: Metabolic stability in human liver microsomes assessed as intrinsic clearance at 1 uM incubated for 30 mins in presence of NADPH by LC-MS/MS analysis
Format: ADME, Microsome
Test Context: read-out: CLH
Metric: microsomal CLint at 1 µM (µL/min/mg)
Only the number, expressed in µL/min/mg, is required.

// microsomal CLint at 1 µM lookup, key: `C=CC(=O)N1CC[C@H](n2cc(-c3ccncc3)c(-c3cccc(/C=C/c4ccc5c(c4)CN(C)C5=O)c3)n2)C1`
200

// microsomal CLint at 1 µM lookup, key: `C=CC(=O)N1CC(Oc2cc3c(-c4c[nH]nc4-c4cccc(OC)c4)ncnc3cc2OC)C1`
33

// microsomal CLint at 1 µM lookup, key: `C=CC(=O)N1CC[C@H](n2cc(-c3ccncc3)c(-c3cccc(NC(=O)c4cn(C5CC5)cn4)c3)n2)C1`
64

// microsomal CLint at 1 µM lookup, key: `C=CS(=O)(=O)NCCn1cc(-c2ncnc3cc(OC)c(OC)cc23)c(-c2cccc(OC)c2)n1`
192

// microsomal CLint at 1 µM lookup, key: `C#CC(=O)NCCn1cc(-c2ncnc3cc(OC)c(OC)cc23)c(-c2cccc(OC)c2)n1`
105

// microsomal CLint at 1 µM lookup, key: `Fc1ccccc1COc1cccc(-c2n[nH]cc2-c2ccncn2)c1`
117

// microsomal CLint at 1 µM lookup, key: `Fc1ccccc1COc1cccc(-c2n[nH]cc2-c2ccncc2)c1`
226

// microsomal CLint at 1 µM lookup, key: `C=CC(=O)N1CC[C@H](n2cc(-c3ccncc3)c(-c3cccc(/C=C/c4cc5n(n4)CCOC5)c3)n2)C1`
167
